Below, each entry is listed with its recorded combination Emax.
tested on: MDA-MB-415 (Breast Carcinoma); experiment: combination Emax (second highest fraction inhibited in the dose matrix, 72 h); higher = more inhibition; extreme values may be limits of the assay
Write no unit; give the number alone.

CC1(C)CCC(CN2CCN(c3ccc(C(=O)NS(=O)(=O)c4ccc(NCC5CCOCC5)c([N+](=O)[O-])c4)c(Oc4cnc5[nH]ccc5c4)c3)CC2)=C(c2ccc(Cl)cc2)C1 [Venetoclax] + Cc1cc2ncnn2cc1Nc1ncc2c(n1)n(C1CCOCC1)c(=O)n2C [AZD7648] (first compound max 1 µM, 7x7, partner max 10 µM) : 0.342
CCN(CCO)CCCOc1ccc2c(Nc3cc(CC(=O)Nc4cccc(F)c4)[nH]n3)ncnc2c1 [AZD2811] + C[C@@H]1COCCN1C2=NC(=NC(=C2)C3(CC3)[S@](=N)(=O)C)C4=C5C=CNC5=NC=C4 [AZD6738] (first compound max 1 µM, 7x7, partner max 10 µM) : 0.498
COc1nnc2ccc(N3CCC(c4ccc(OCCN5CCN(C)C(=O)[C@H]5C)cc4)CC3)nn12 [AZD5153] + Cc1c2c(nn1C)CSCc1cc(n(C)n1)CSc1cc(c3ccccc3c1)OCCCc1c(C(=O)O)n(C)c3c-2c(Cl)ccc13 [AZD5991] (first compound max 1 µM, 7x7, partner max 1 µM) : 0.693

Please examine the following record next.
Problem: Identify measured combination Emax corresponding to CC(=O)c1c(C)c2cnc(Nc3ccc(N4CCNCC4)cn3)nc2n(C2CCCC2)c1=O [Palbociclib] + Cn1cnc2c(F)c(Nc3ccc(Br)cc3Cl)c(C(=O)NOCCO)cc21 [Selumetinib] (first compound max 10 µM, 7x7, partner max 10 µM)
Solution: 0.254

###

test system: P32-ISH (Burkitt's Lymphoma); experiment: combination Emax (second highest fraction inhibited in the dose matrix, 72 h); higher = more inhibition; extreme values may be limits of the assay
Quantity measured: combination Emax
Write no unit; give the number alone.

Consider the following illustrative entries.
Cc1c2c(nn1C)CSCc1cc(n(C)n1)CSc1cc(c3ccccc3c1)OCCCc1c(C(=O)O)n(C)c3c-2c(Cl)ccc13 [AZD5991] + Cn1cnc2c(F)c(Nc3ccc(Br)cc3Cl)c(C(=O)NOCCO)cc21 [Selumetinib] (first compound max 1 µM, 7x7, partner max 3 µM) : 1
CN(C)CCCOc1ccc(-c2ccc3ncc4c(c3c2)n(C2CCOCC2)c(=O)n4C)cn1 [AZD0156] + O=C(c1cc(Cc2n[nH]c(=O)c3ccccc23)ccc1F)N1CCN(C(=O)C2CC2)CC1 [Olaparib] (first compound max 3 µM, partner max 3 µM) : 0.628

Problem: Identify measured combination Emax corresponding to CC(=O)c1c(C)c2cnc(Nc3ccc(N4CCNCC4)cn3)nc2n(C2CCCC2)c1=O [Palbociclib] + Cc1c2c(nn1C)CSCc1cc(n(C)n1)CSc1cc(c3ccccc3c1)OCCCc1c(C(=O)O)n(C)c3c-2c(Cl)ccc13 [AZD5991] (first compound max 10 µM, 7x7, partner max 1 µM)
Solution: 1

###

system: NCI-H596 (Other Solid Carcinomas); assay: Bliss excess, mean over the matrix (fraction); higher = more synergy;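 note: after 72 h of two-drug dosing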
Quantity measured: Bliss excess

Consider the following illustrative entries.
CC(=O)c1c(C)c2cnc(Nc3ccc(N4CCNCC4)cn3)nc2n(C2CCCC2)c1=O [Palbociclib] + CC1(C)CCC(CN2CCN(c3ccc(C(=O)NS(=O)(=O)c4ccc(NCC5CCOCC5)c([N+](=O)[O-])c4)c(Oc4cnc5[nH]ccc5c4)c3)CC2)=C(c2ccc(Cl)cc2)C1 [Venetoclax] (first compound max 10 µM, 7x7, partner max 1 µM) : -0.0501
COc1nnc2ccc(N3CCC(c4ccc(OCCN5CCN(C)C(=O)[C@H]5C)cc4)CC3)nn12 [AZD5153] + C=CCn1c(=O)c2cnc(Nc3ccc(N4CCN(C)CC4)cc3)nc2n1-c1cccc(C(C)(C)O)n1 [AZD1775] (first compound max 1 µM, partner max 1 µM) : -0.131
Cc1c2c(nn1C)CSCc1cc(n(C)n1)CSc1cc(c3ccccc3c1)OCCCc1c(C(=O)O)n(C)c3c-2c(Cl)ccc13 [AZD5991] + C[C@@H]1COCCN1C2=NC(=NC(=C2)C3(CC3)[S@](=N)(=O)C)C4=C5C=CNC5=NC=C4 [AZD6738] (first compound max 1 µM, 7x7, partner max 10 µM) : -0.0172

Please examine the following record next.
Problem: Identify measured Bliss excess corresponding to Cc1nc(Nc2ncc(C(=O)Nc3c(C)cccc3Cl)s2)cc(N2CCN(CCO)CC2)n1 [Dasatinib] + CC(=O)Nc1cccc(-n2c(=O)n(C3CC3)c(=O)c3c(Nc4ccc(I)cc4F)n(C)c(=O)c(C)c32)c1 [Trametinib] (first compound max 2 µM, 7x7, partner max 1 µM)
Solution: -0.0018

###

tested on: IA-LM (Non-Small Cell Lung Carcinoma); test: combination Emax (second highest fraction inhibited in the dose matrix, 72 h); higher = more inhibition; extreme values may be limits of the assay
Quantity measured: combination Emax
Write no unit; give the number alone.

Consider the following illustrative entries.
CN(CCO)CC[C@H](CSc1ccccc1)Nc1ccc(S(=O)(=O)NC(=O)c2ccc(N3CCC([C@@H](O)c4ccccc4-c4ccc(Cl)cc4)CC3)cc2)cc1S(=O)(=O)C(F)(F)F [AZD4320] + CN(C)CCCOc1ccc(-c2ccc3ncc4c(c3c2)n(C2CCOCC2)c(=O)n4C)cn1 [AZD0156] (first compound max 1 µM, 7x7, partner max 1 µM) : 0.432
Cc1c2c(nn1C)CSCc1cc(n(C)n1)CSc1cc(c3ccccc3c1)OCCCc1c(C(=O)O)n(C)c3c-2c(Cl)ccc13 [AZD5991] + C[C@@H]1COCCN1C2=NC(=NC(=C2)C3(CC3)[S@](=N)(=O)C)C4=C5C=CNC5=NC=C4 [AZD6738] (first compound max 1 µM, 7x7, partner max 10 µM) : 0.389

Problem: Identify measured combination Emax corresponding to C[C@@H](c1ccc2nccn2c1)n1nnc2ncc(-c3cnn(C)c3)nc21 [Savolitinib] + Cc1c2c(nn1C)CSCc1cc(n(C)n1)CSc1cc(c3ccccc3c1)OCCCc1c(C(=O)O)n(C)c3c-2c(Cl)ccc13 [AZD5991] (first compound max 1 µM, 7x7, partner max 1 µM)
Solution: 0.268

###

test system: SNU-407 (Colorectal Carcinoma); assay: combination Emax (second highest fraction inhibited in the dose matrix, 72 h); higher = more inhibition; extreme values may be limits of the assay
Below, each entry is listed with its recorded combination Emax.
Write no unit; give the number alone.

Consider the following illustrative entries.
Cc1c2c(nn1C)CSCc1cc(n(C)n1)CSc1cc(c3ccccc3c1)OCCCc1c(C(=O)O)n(C)c3c-2c(Cl)ccc13 [AZD5991] + CN(C)CCCOc1ccc(-c2ccc3ncc4c(c3c2)n(C2CCOCC2)c(=O)n4C)cn1 [AZD0156] (first compound max 1 µM, 7x7, partner max 1 µM) : 0.676
CN(C)CCCOc1ccc(-c2ccc3ncc4c(c3c2)n(C2CCOCC2)c(=O)n4C)cn1 [AZD0156] + C=CCn1c(=O)c2cnc(Nc3ccc(N4CCN(C)CC4)cc3)nc2n1-c1cccc(C(C)(C)O)n1 [AZD1775] (first compound max 1 µM, partner max 1 µM) : 0.358
Cc1nc(Nc2ncc(C(=O)Nc3c(C)cccc3Cl)s2)cc(N2CCN(CCO)CC2)n1 [Dasatinib] + CC(=O)Nc1cccc(-n2c(=O)n(C3CC3)c(=O)c3c(Nc4ccc(I)cc4F)n(C)c(=O)c(C)c32)c1 [Trametinib] (first compound max 2 µM, 7x7, partner max 1 µM) : 0.756

Problem: Write down the reported combination Emax (system: SNU-407 (Colorectal Carcinoma)) of COc1nnc2ccc(N3CCC(c4ccc(OCCN5CCN(C)C(=O)[C@H]5C)cc4)CC3)nn12 [AZD5153] + CCN(CCO)CCCOc1ccc2c(Nc3cc(CC(=O)Nc4cccc(F)c4)[nH]n3)ncnc2c1 [AZD2811] (first compound max 1 µM, 7x7, partner max 1 µM)
Solution: 0.866

###

test system: NCI-H1341 (Small Cell Lung Carcinoma); assay: combination Emax (second highest fraction inhibited in the dose matrix, 72 h); higher = more inhibition; extreme values may be limits of the assay
Quantity measured: combination Emax

CN(C)CCCOc1ccc(-c2ccc3ncc4c(c3c2)n(C2CCOCC2)c(=O)n4C)cn1 [AZD0156] + C=CCn1c(=O)c2cnc(Nc3ccc(N4CCN(C)CC4)cc3)nc2n1-c1cccc(C(C)(C)O)n1 [AZD1775] (first compound max 1 µM, partner max 1 µM) : 0.675

Please examine the following record next.
Problem: Identify measured combination Emax corresponding to COc1cccc(OCCCN)c1-c1cc(Nc2cnc(C#N)cn2)n[nH]1 [Prexasertib] + C[C@@H]1COCCN1C2=NC(=NC(=C2)C3(CC3)[S@](=N)(=O)C)C4=C5C=CNC5=NC=C4 [AZD6738] (first compound max 1 µM, 7x7, partner max 10 µM)
Solution: 0.912
